target: HIV integrase (Human immunodeficiency virus type 1 group M subtype B, UniProt P12497, F1332H); construct: HIV integrase full length gene; assay: Determination of enzyme (HIV integrase) inhibitory activity (strand transfer, microtiter plate, absorbance at 450 nm); conditions: recombinant HIV integrase (F185H) expressed in E. coli; donor DNA on streptavidin plate, digoxigenin target DNA; 37° C.
Kindly state log10 IC50 for each of the entries shown.
// do not treat as linear: log10 of IC50, unit nM

Give measured log10 IC50 for every item shown.
1. COc1c(Cc2cccc(Cl)c2F)cc2c(=O)c(C(=O)O)cn(CCO)c2c1OC [Example 3-45]
2. CN(n1cc(C(=O)O)c(=O)c2cc(Cc3cccc(Cl)c3Cl)ccc21)S(C)(=O)=O [Example 2-5]
3. CC[C@@H](CO)n1cc(C(=O)O)c(=O)c2cc(Cc3cccc(Cl)c3F)c(OC)cc21 [Example 3-73]

OUTPUT:
1. 1.18
2. 2.48
3. 0.52

Give measured log10 IC50 for every item shown.
1. COc1cc2c(cc1Cc1cccc(Cl)c1F)c(=O)c(C(=O)O)cn2[C@H](CO)C(C)(C)C [Example 4-33]
2. CCOc1cc(Cc2cccc(Cl)c2F)cc2c(=O)c(C(=O)O)cn([C@H](CO)C(C)(C)C)c12 [Example 4-37]
3. O=C(O)c1cn(CC(O)c2ccccc2)c2ccc(Cc3cccc(Cl)c3Cl)cc2c1=O (stereo not drawn) [Example 1-43]
4. O=C(O)c1cn(CCO)c2ccc(Cc3cc(F)ccc3Cl)cc2c1=O [Example 4-6]
5. Cc1c(Cl)cccc1Cc1ccc2c(c1)c(=O)c(C(=O)O)cn2CCO [Example 3-2]

OUTPUT:
0.30
0.28
1.38
2.66
2.30

Give measured log10 IC50 for every item shown.
1. CCCOc1cc2c(cc1Cc1cccc(Cl)c1F)c(=O)c(C(=O)O)cn2CCO [Example 3-49]
2. CN(C)c1cc2c(cc1Cc1cccc(Cl)c1F)c(=O)c(C(=O)O)cn2CCO [Example 3-62]
3. CN(C)CCn1cc(C(=O)O)c(=O)c2cc(Cc3cccc(Cl)c3Cl)ccc21 [Example 1-24]
4. CC(C)Oc1cc2c(cc1Cc1cccc(Cl)c1F)c(=O)c(C(=O)O)cn2[C@H](CO)C(C)C [Example 4-19]
5. CC(C)C[C@@H](CO)n1cc(C(=O)O)c(=O)c2cc(Cc3cccc(Cl)c3F)c(OC(C)C)cc21 [Example 4-23]

OUTPUT:
0.90
1.43
2.46
0.46
0.58

Give measured log10 IC50 for every item shown.
1. CC(=O)Cn1cc(C(=O)O)c(=O)c2cc(Cc3cccc(Cl)c3Cl)ccc21 [Example 1-14]
2. O=C(O)c1cn(Cc2cc3ccccc3s2)c2ccc(Cc3cccc(Cl)c3Cl)cc2c1=O [Example 1-22]
3. C[C@@H](CO)n1cc(C(=O)O)c(=O)c2cc(Cc3cccc(Cl)c3F)ccc21 [Example 3-23]
4. CCCNc1cc(Cc2cccc(Cl)c2F)cc2c(=O)c(C(=O)O)cn(CCO)c12 [Example 3-54]
5. O=C(O)c1cn(CCO)c2ccc(Cc3c(F)cccc3Cl)cc2c1=O [Example 1-33]
6. O=C(O)c1cn(CCO)c2c(Oc3ccccc3)cc(Cc3cccc(Cl)c3F)cc2c1=O [Example 3-52]
7. CCOc1cc(Cc2cccc(Cl)c2F)cc2c(=O)c(C(=O)O)cn([C@H](CO)C3CCCCC3)c12 [Example 4-41]
8. CCN(CC)c1ccccc1Cc1ccc2c(c1)c(=O)c(C(=O)O)cn2CCO [Example 3-42]

OUTPUT:
1: 1.88; 2: 2.04; 3: 0.86; 4: 0.81; 5: 2.15; 6: 1.08; 7: 0.36; 8: 2.86
